Run description: Solubility of amines and amine mixtures in acrylate resins
Format: physicochemical
Condition info: in TPGDA (tripropyleneglycol diacrylate); stays in solution at least 7 days; above 10% w/w not tested
Parameter measured: Solubility (% w/w at ~15-20° C.) (% w/w)
The figure you give is taken to be in % w/w; do not add the unit.

| Compound | Value unit | Solubility (% w/w at ~15-20° C.) |
| --- | --- | --- |
| CCC(COCC(CC)(COC(=O)c1ccc(N(C)C)cc1)COC(=O)c1ccc(N(C)C)cc1)(COC(=O)c1ccc(N(C)C)cc1)COC(=O)c1ccc(N(C)C)cc1 [AC1] | % w/w | 3 |

Now consider the entry below.
Query :: Value lookup for Solubility (% w/w at ~15-20° C.); key = CCC(CO)(COCC(CC)(COC(=O)c1ccc(N(C)C)cc1)COC(=O)c1ccc(N(C)C)cc1)COC(=O)c1ccc(N(C)C)cc1 (centres unmarked) [AC2]
Result :: 10

###

Run description: Solubility of amines and amine mixtures in acrylate resins
Assay type: physicochemical
Condition info: in HDDA (1,6-hexanediol diacrylate); stays in solution at least 7 days; above 10% w/w not tested
Parameter measured: Solubility (% w/w at ~15-20° C.) (% w/w)
Your answer should be a plain number; it is taken to be in % w/w.

| Compound | Value unit | Solubility (% w/w at ~15-20° C.) |
| --- | --- | --- |
| CCC(CO)(COCC(CC)(COC(=O)c1ccc(N(C)C)cc1)COC(=O)c1ccc(N(C)C)cc1)COC(=O)c1ccc(N(C)C)cc1 (centres unmarked) [AC2] | % w/w | 10 |

Query :: # get_value(readout='Solubility (% w/w at ~15-20° C.)', item= CCC(COCC(CC)(COC(=O)c1ccc(N(C)C)cc1)COC(=O)c1ccc(N(C)C)cc1)(COC(=O)c1ccc(N(C)C)cc1)COC(=O)c1ccc(N(C)C)cc1 [AC1] )
Result :: 5

###

Run description: Solubility of amines and amine mixtures in acrylate resins
Type: physicochemical
Condition info: in TMPTA (trimethylolpropane triacrylate); stays in solution at least 7 days; above 10% w/w not tested
Parameter measured: Solubility (% w/w at ~15-20° C.) (% w/w)
Your answer should be a plain number; it is taken to be in % w/w.

| Compound | Solubility (% w/w at ~15-20° C.) [% w/w] |
| --- | --- |
| CCC(COCC(CC)(COC(=O)c1ccc(N(C)C)cc1)COC(=O)c1ccc(N(C)C)cc1)(COC(=O)c1ccc(N(C)C)cc1)COC(=O)c1ccc(N(C)C)cc1 | 4 |

Now turn to the next compound.
Query :: State the recorded Solubility (% w/w at ~15-20° C.) for this entry: CCC(CO)(COCC(CC)(COC(=O)c1ccc(N(C)C)cc1)COC(=O)c1ccc(N(C)C)cc1)COC(=O)c1ccc(N(C)C)cc1 (centres unmarked)
Result :: 10

###

Run description: Solubility of amines and amine mixtures in acrylate resins
Format: physicochemical
Condition info: in TPGDA (tripropyleneglycol diacrylate); stays in solution at least 7 days; above 10% w/w not tested
Parameter measured: Solubility (% w/w at ~15-20° C.)

Below are worked cases with known answers.
| Substance smiles | Solubility (% w/w at ~15-20° C.) |
| --- | --- |
| CN(C)c1ccc(C(=O)OCC(COC(=O)c2ccc(N(C)C)cc2)OC(=O)c2ccc(N(C)C)cc2)cc1 | <1 % w/w |
| CN(C)c1ccc(C(=O)OCC(COC(=O)c2ccc(N(C)C)cc2)(COC(=O)c2ccc(N(C)C)cc2)COC(=O)c2ccc(N(C)C)cc2)cc1 | <1 % w/w |

Query :: Please report the recorded Solubility (% w/w at ~15-20° C.) for CCC(COC(=O)c1ccc(N(C)C)cc1)(COC(=O)c1ccc(N(C)C)cc1)COC(=O)c1ccc(N(C)C)cc1 .
Result :: <2 % w/w

Reference for the values: patent US12146010B2
